- System: SH-SY5Y
- Assay Notes: Inhibition of H2O2-induced apoptosis in human SH-SY5Y cells assessed as early apoptotic cells at 25 uM preincubated for 1 hr followed by H2O2-stimulation and measured after 4 hrs by Annexin V-FITC/propidium iodide staining-based flow cytometric analysis (reference value: 2.25%)
- Format: functional
- Design: scale not given: the % may be the effect or the level left
Recorded Metric: Activity (%)
Write the answer as a number in %, unit excluded.

**Q:** Given the molecule COC1=C[C@@H](C)[C@@H]2C[C@H]3OC(=O)C[C@@]4(O)C(C)=C(OC)C(=O)[C@H]([C@@]2(C)C1=O)[C@@]34C , what is its reported Activity?
**A:** 3.18

**Q:** Can you share its Activity? I mean this molecule: COC1=C[C@@H](C)[C@@H]2C[C@H]3OC(=O)C[C@H]4[C@@H](C)[C@H](OC)[C@@H](OC(=O)c5cc(OC)c6c(c5)OCO6)[C@H]([C@@]2(C)C1=O)[C@@]34C
**A:** 2.2

**Q:** Given the molecule COC1=C[C@@H](C)[C@@H]2C[C@H]3OC(=O)C[C@H]4C(C)=C(OC)C(=O)[C@H]([C@@]2(C)C1=O)[C@@]34C , what is its reported Activity?
**A:** 2.45

**Q:** Which value of Activity has been reported for COC1=C[C@@H](C)[C@@H]2C[C@H]3OC(=O)C[C@H]4C(CO)=C(OC)C(=O)[C@H]([C@@]2(C)C1=O)[C@@]34C in the records?
**A:** 2.96

**Q:** Given the entry COC1=C[C@@H](C)[C@@H]2C[C@H]3O[C@@H](O[C@@H]4O[C@H](CO)[C@@H](O)[C@H](O)[C@H]4O)C[C@H]4C(C)=C(OC)C(=O)[C@H]([C@@]2(C)C1=O)[C@@]34C [PICRASINOSIDE B] , report its measured Activity.
**A:** 1.86

----------
Reported values of Activity for individual entries
- Tested on: SH-SY5Y
- Assay Notes: Inhibition of H2O2-induced apoptosis in human SH-SY5Y cells assessed as necrotic cells at 25 uM preincubated for 1 hr followed by H2O2-stimulation and measured after 4 hrs by Annexin V-FITC/propidium iodide staining-based flow cytometric analysis (reference value: 22.2%)
- Format: functional
- Design: scale not given: the % may be the effect or the level left
# number only, unit % dropped from output

Here is how some molecules turned out for Activity.
# Molecule, Activity / %
records = [
    ("COC1=C[C@@H](C)[C@@H]2C[C@H]3OC(=O)C[C@H]4C(C)=C(OC)C(=O)[C@H]([C@@]2(C)C1=O)[C@@]34C", 10.7),
    ("COC1=C[C@@H](C)[C@@H]2C[C@H]3OC(=O)C[C@@]4(O)C(C)=C(OC)C(=O)[C@H]([C@@]2(C)C1=O)[C@@]34C", 11.3),
]

**Q:** Could you tell me which Activity is on file for COC1=C[C@@H](C)[C@@H]2C[C@H]3OC(=O)C[C@H]4C(CO)=C(OC)C(=O)[C@H]([C@@]2(C)C1=O)[C@@]34C ?
**A:** 7.31

**Q:** Entry COC1=C[C@@H](C)[C@@H]2C[C@H]3OC(=O)C[C@H]4[C@@H](C)[C@H](OC)[C@@H](OC(=O)c5cc(OC)c6c(c5)OCO6)[C@H]([C@@]2(C)C1=O)[C@@]34C : reported Activity = ?
**A:** 7.89

**Q:** Reported Activity, molecule COC1=C[C@@H](C)[C@@H]2C[C@H]3O[C@@H](O[C@@H]4O[C@H](CO)[C@@H](O)[C@H](O)[C@H]4O)C[C@H]4C(C)=C(OC)C(=O)[C@H]([C@@]2(C)C1=O)[C@@]34C [PICRASINOSIDE B] : ____
**A:** 7.43
